# target.or.system: Tyrosine-protein kinase Tec (Homo sapiens, UniProt P42680)
# Sequence (P42680 whole entry): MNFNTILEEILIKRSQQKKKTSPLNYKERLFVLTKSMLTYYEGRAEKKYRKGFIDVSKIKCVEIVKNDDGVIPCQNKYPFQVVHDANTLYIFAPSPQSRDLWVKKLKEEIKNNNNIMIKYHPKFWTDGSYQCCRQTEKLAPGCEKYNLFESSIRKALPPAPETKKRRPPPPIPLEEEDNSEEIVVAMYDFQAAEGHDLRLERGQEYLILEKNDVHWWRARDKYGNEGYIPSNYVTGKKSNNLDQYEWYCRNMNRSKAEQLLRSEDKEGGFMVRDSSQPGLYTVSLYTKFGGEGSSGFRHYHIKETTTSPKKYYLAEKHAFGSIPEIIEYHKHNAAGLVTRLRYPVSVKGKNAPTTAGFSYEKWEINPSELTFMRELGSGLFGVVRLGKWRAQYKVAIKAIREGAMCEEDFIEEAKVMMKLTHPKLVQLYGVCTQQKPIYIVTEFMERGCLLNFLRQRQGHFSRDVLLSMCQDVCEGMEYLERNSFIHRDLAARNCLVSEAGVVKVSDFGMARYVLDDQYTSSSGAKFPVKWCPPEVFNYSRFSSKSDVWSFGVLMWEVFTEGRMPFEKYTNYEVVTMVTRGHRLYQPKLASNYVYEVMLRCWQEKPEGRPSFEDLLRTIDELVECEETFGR
test.readout: IC50 (nM)
Write the number in nM without appending the unit.

Consider the worked cases shown below.
> print(dat)
                                   molecule  test.readout  result.value
1  CC(C)C(=O)N1CCC[C@@H](c2nc(-c3ccc(C(=O)Nc4cc(C(F)(F)F)ccn4)cc3F)c3c(N)nccn23)C1          IC50           378
2  COCC(=O)N1CCO[C@@H](c2nc(-c3ccc(C(=O)Nc4cc(C(F)(F)F)ccn4)cc3F)c3c(N)nccn23)C1          IC50           232
3  CC(C)C(=O)N1CCO[C@@H](c2nc(-c3ccc(C(=O)Nc4cc(C(F)(F)F)ccn4)cc3F)c3c(N)nccn23)C1          IC50           428

Input line: Entry under review: "Nc1nccn2c([C@@H]3CCCN(C4CCOCC4)C3)nc(-c3ccc(C(=O)Nc4cc(C(F)(F)F)ccn4)cc3F)c12" . Reported IC50?
Output line: 170
